Molecular target: UniProtKB P00489
Sequence (P00489 whole entry): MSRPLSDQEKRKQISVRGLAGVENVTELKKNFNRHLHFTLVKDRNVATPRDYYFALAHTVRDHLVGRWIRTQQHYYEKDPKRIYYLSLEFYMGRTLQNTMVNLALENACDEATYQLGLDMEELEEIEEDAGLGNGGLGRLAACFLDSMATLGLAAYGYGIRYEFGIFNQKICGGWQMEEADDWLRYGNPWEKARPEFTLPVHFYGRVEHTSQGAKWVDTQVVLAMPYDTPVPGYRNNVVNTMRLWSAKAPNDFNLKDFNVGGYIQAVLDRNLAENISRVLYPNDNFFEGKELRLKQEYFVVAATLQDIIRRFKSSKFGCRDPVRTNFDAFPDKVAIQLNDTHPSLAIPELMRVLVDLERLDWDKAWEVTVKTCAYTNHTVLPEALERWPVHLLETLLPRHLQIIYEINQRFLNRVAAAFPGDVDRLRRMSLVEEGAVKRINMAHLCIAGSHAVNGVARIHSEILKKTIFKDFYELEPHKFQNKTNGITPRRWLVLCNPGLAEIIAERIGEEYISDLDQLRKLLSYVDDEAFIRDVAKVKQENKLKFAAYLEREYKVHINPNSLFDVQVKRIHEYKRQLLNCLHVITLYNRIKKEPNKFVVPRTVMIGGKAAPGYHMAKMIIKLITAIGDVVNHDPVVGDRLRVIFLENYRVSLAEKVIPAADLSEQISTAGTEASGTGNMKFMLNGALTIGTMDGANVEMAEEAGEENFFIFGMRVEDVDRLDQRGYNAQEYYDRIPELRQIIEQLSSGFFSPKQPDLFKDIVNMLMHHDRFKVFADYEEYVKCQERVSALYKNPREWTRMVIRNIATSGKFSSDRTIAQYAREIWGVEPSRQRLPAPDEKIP
Hi! Could you tag entries with IC50 below 30 µM as Y, and those at or above as N? Much appreciated.

CCOC(=O)CCCOC(=O)[C@]12CCC(C)(C)C[C@H]1C1=CC[C@@H]3[C@@]4(C)CC[C@H](O)C(C)(C)[C@@H]4CC[C@@]3(C)[C@]1(C)CC2 N

Challenge: Take the compound "CC1(C)CC[C@]2(C(=O)O)CC[C@]3(C)C(=CC[C@@H]4[C@@]5(C)C[C@H](O)CC(C)(C)[C@@H]5CC[C@]43C)[C@@H]2C1" and say whether its IC50 is less than 30 µM.
Response given: Y

Challenge: Does this compound meet the criterion IC50 < 30 µM? "CCn1cc2c(n1)C(C)(C)[C@@H]1CC[C@]3(C)[C@H](CC=C4[C@@H]5CC(C)(C)CC[C@]5(C(=O)OCc5ccccc5)CC[C@]43C)[C@@]1(C)C2"
Response given: N

Challenge: State whether 30 µM exceeds IC50 recorded for "CC1(C)CC[C@]2(C(=O)OCc3ccccc3)CC[C@]3(C)C(=CC[C@@H]4[C@@]5(C)CC[C@H](OC(=O)c6ccc(N)cc6)C(C)(C)[C@@H]5CC[C@]43C)[C@@H]2C1" .
Response given: Y

Challenge: Field: below-cutoff. Rule: recorded IC50 strictly less than 30 µM. Subject: "CC1(C)CC[C@]2(C(=O)O)CC[C@]3(C)C(=CC[C@@H]4[C@@]5(C)C/C(=N\O)C(=O)C(C)(C)[C@@H]5CC[C@]43C)[C@@H]2C1"
Response given: Y

Challenge: hey, is IC50 for "C[C@H]1[C@H](C)CC[C@]2(C(=O)O)CC[C@]3(C)C(=CC[C@@H]4[C@@]5(C)CC[C@H](OC(=O)CCC(=O)O)C(C)(C)[C@@H]5CC[C@]43C)[C@H]12" lower than 30 µM or not?
Response given: Y
